Data credit: ChEMBL document CHEMBL1124349

# system_under_test: GABA-A receptor; anion channel
# run_description: Inhibition of [3H]-Ro- 15-1788 binding to GABA-A benzodiazepine receptor of rat cortical membranes
# Assay type: cell membranes, Membrane

# structure_as_smiles, IC50
records = [
    ("Cc1noc(-c2ncn3c2CN=C(c2ccccc2)c2ccccc2-3)n1", "24 nM"),
]

###

# system_under_test: GABA-A receptor; anion channel (Rattus norvegicus) (UniProt O09028+P15431+P18506+P18508+P19969+P20236+P23574+P23576+P28471+P28473+P30191+P62813+P63079+P63138+Q91ZM7+Q9ES14)
# run_description: Ratio of binding affinity to the GABA-A receptor in the presence and absence of GABA
# Assay type: protein-complex assay
// NB: equality with 2 counts as FALSE; only GABA shift strictly below is TRUE

# structure_as_smiles, category
measured = [
    ("CC(C)c1noc(-c2ncn3c2CN(C)C(=O)c2c(Cl)cccc2-3)n1", "TRUE"),
    ("CCc1noc(-c2ncn3c2CN(C)C(=O)c2ccccc2-3)n1", "TRUE"),
    ("CCCc1noc(-c2ncn3c2CN=C(c2ccccc2)c2ccccc2-3)n1", "TRUE"),
    ("CCCc1noc(-c2ncn3c2CN=C(c2ccccc2Cl)c2cc(Cl)ccc2-3)n1", "FALSE"),
    ("Cc1nc(-c2ncn3c2CN(C)C(=O)c2c(F)cccc2-3)no1", "TRUE"),
]
